Origin of the recorded values: patent US20150368338A1

Kd listing for selected binders.
# measured-target: T1, IFN-αF (human, UniProt P01568 24-189)
# T1 construct: Recombinant, HEK293; also called IFN-α21
# T1 chain: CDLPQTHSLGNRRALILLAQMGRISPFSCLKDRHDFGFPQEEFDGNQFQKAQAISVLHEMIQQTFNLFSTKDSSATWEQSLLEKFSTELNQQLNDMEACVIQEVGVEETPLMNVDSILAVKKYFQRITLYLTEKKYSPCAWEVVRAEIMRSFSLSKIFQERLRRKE
# assay-text: ProteOn SPR, cell supernatant;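 note: each binding measurement used just a single antigen concentration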
assay-readout: Kd (nM)

>  <binder>
IFWM3411 (antibody, IgG1, V domains shown, mAb; IgG1/kappa said of the parent and of selected mAbs; also called IFWB3146) VH: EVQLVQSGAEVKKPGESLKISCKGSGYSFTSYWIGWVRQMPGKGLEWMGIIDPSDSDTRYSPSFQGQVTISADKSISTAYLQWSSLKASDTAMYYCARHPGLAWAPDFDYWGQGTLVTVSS VL: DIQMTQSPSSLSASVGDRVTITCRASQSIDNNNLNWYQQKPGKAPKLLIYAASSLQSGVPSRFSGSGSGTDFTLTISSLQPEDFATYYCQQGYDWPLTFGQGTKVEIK

>  <assay-readout>
Kd

>  <number>
0.037

$$$$
>  <binder>
IFWM3415 (antibody, IgG1, V domains shown, mAb; IgG1/kappa said of the parent and of selected mAbs; also called IFWB3150) VH: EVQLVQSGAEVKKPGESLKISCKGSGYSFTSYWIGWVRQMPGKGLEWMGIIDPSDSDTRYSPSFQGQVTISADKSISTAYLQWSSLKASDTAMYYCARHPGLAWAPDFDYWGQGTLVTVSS VL: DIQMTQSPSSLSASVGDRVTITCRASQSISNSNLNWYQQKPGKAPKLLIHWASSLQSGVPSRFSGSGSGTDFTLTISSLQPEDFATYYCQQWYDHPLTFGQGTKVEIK

>  <assay-readout>
Kd

>  <number>
0.026

$$$$
>  <binder>
IFWM3417 (antibody, IgG1, V domains shown, mAb; IgG1/kappa said of the parent and of selected mAbs; also called IFWB3152) VH: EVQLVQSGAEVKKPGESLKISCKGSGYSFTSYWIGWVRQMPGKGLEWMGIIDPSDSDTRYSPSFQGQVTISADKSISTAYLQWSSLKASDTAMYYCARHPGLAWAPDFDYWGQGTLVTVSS VL: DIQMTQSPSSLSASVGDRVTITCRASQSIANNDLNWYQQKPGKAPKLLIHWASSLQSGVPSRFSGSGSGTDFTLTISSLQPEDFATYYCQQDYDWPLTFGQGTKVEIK

>  <assay-readout>
Kd

>  <number>
0.039

$$$$
